Target: T1, UNK ZnF1-3 (human, UniProt Q9C0B0 31-174)
T1 sequence: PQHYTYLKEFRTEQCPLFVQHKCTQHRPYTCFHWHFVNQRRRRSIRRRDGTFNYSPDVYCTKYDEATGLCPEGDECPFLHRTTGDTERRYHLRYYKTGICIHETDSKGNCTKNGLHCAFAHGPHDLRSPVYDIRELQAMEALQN
Assay: nsRBNS (natural sequence RNA bind-n-seq); RBNS binding buffer (assumed for nsRBNS): 25 mM Tris pH 7.5, 150 mM KCl, 3 mM MgCl2, 0.01% Triton X-100, 500 ug/ml BSA, 20 U/ml SUPERase-In, 4 C; UNK is unkempt and MSI1 is Musashi-1; names of the RNAs are library labels; protein concentration not given here; high values mean tight binding
Over roughly 24,000 sequences, “enrichment r” has its median near 0.99; the highest 2% begin near 3.7. Many of the other results were omitted from the sample, so the highest values are more common in it than they were.
metric: binding signal (enrichment R)

[
  {
    "binder": "29117783_29124966_335_CDS_ENSG00000163811_ENST00000407426|human|control|control (ssRNA) RNA: GGGAGUUCUACAGUCCGACGAUCUUUUACUGUGCUGUAUAAUAAAAUGCUACCAACUGCUGUGCCAAGAGCCAAUAAGUCAGUCUGGUUACUCAUUCCUACAGCUUCUGAUUUCCUUUUUUUCCUCUGGGGACUUUCCUUGGCCAACAGAGGAUUGAGCAUCA",
    "unit-string": "enrichment R",
    "result-value": 0.828
  },
  {
    "binder": "chr15:81680702:81680703:-_ENSMUSG00000048546_ENSMUST00000050467|mus_mus|motif|central (ssRNA) RNA: GGGAGUUCUACAGUCCGACGAUCGAGAGAGAGUUGAGGCUAGGGCCAGACUUAUUUGGGUGGCAGGCCCUGAGAAGACAGCGGGGUUGGGGGUUGUGGACACGGGGGUGGAGGGUGGGGGGGUGUCAGCCUCUCCCUGUUUCACAACAGAGGAUUGAGCAUCA",
    "unit-string": "enrichment R",
    "result-value": 4.46
  },
  {
    "binder": "171883182_171886102_1035_3pUTR_ENSMUSG00000026675_ENSMUST00000027989|mouse|control|control (ssRNA) RNA: GGGAGUUCUACAGUCCGACGAUCUUCUGAACGGUGGUCCUGACACGCUUUUCCAGCUCCAGUAAGACCUCAUAGAAUUUUUCAGCAGUGUCUUCAUCUAUGUCCAUCUUUUGGCCCGUGACGUAAUUAGUCCCAAAUCCCGAGCAACAGAGGAUUGAGCAUCA",
    "unit-string": "enrichment R",
    "result-value": 0.753
  }
]
